The values you see were collected from patent US20030105124A1.

measurement-kind: melting point

Consider the reported melting point for these molecules:
INSERT INTO results (smiles_code, result) VALUES
  ('COc1cc2c(cc1CN[C@H]1C3CCN(CC3)[C@H]1C(c1ccccc1)c1ccccc1)N(C)C(=O)CC2', '136 to 139 °C'),
  ('COc1cc2ccc(=O)n(C)c2cc1CN[C@H]1CCCN[C@H]1c1ccccc1.Cl.Cl', '260 to 263 °C'),
  ('COc1cc2c(cc1CN[C@H]1CCCN[C@H]1c1ccccc1)N(C)C(=O)CC2.Cl.Cl', '265 to 268 °C'),
  ('COc1cc2c(cc1CN[C@H]1CCCN[C@H]1c1ccccc1)C(C)(C)C(=S)N2C.Cl.Cl', '234 to 236 °C'),
  ('COc1cc2c(cc1CN[C@H]1CCCN[C@H]1c1ccccc1)N(C)C(=S)CC2.Cl.Cl', '245 to 246 °C');

# query: melting point of entry `COc1cc2c(cc1CN[C@H]1CCCN[C@H]1c1ccccc1)CCC(=O)N2C.Cl.Cl` 243 to 244 °C

Recorded melting point of `COc1cc2c(cc1CN[C@H]1CCCN[C@H]1c1ccccc1)N(C(C)C)C(=O)CC2.Cl.Cl` , please. 257 to 260 °C

Which value of melting point has been reported for `CN1C(=O)CCc2cc(OC(F)F)c(CN[C@H]3CCCN[C@H]3c3ccccc3)cc21.Cl.Cl` in the records? 238 to 240 °C

// query melting point value for entry `COc1cc2c(cc1CN[C@H]1CCCN[C@H]1c1ccccc1)N(C)C(=O)SC2.Cl.Cl` 252 to 254 °C

Could you tell me which melting point is on file for `COc1cc2c(cc1CN[C@H]1CCCN[C@H]1c1ccccc1)N(C)C(=O)CCC2.Cl.Cl` ? 236 to 238 °C
